Each entry below carries its recorded CC50 at 120 h.
experiment: Cytotoxicity against human MT4 cells after 5 days by MTT assay; type: cell-based

Exercise: Value lookup for CC50 at 120 h; key = O=C(CSc1snnc1-c1ccc(Br)cc1Br)Nc1ccccc1F
Key: ≥ 27.8 µM

Exercise: Value lookup for CC50 at 120 h; key = COC(=O)c1ccsc1NC(=O)CSc1snnc1-c1ccc(Br)cc1Br
Key: > 228 µM

Exercise: Value lookup for CC50 at 120 h; key = O=C(CSc1snnc1-c1ccc(Br)cc1Br)Nc1cccnc1Cl
Key: > 240 µM

Exercise: Value lookup for CC50 at 120 h; key = O=C(CSc1snnc1-c1ccc(Br)cc1Br)Nc1ccc(Cl)cc1
Key: 23.3 µM

Exercise: Value lookup for CC50 at 120 h; key = O=C(CSc1snnc1-c1ccc(Br)cc1Br)Nc1ccccn1
Key: 42.4 µM

Exercise: Value lookup for CC50 at 120 h; key = Cc1ccc(NC(=O)CSc2snnc2-c2ccc(Br)cc2Br)cc1
Key: 24 µM

Exercise: Value lookup for CC50 at 120 h; key = CC(=O)c1ccc(NC(=O)CSc2snnc2-c2ccc(Br)cc2Br)c(Br)c1
Key: > 206 µM

The origin of these recorded values is ChEMBL document CHEMBL1155288.
